# Test system: SH-SY5Y
# ASSAY METHOD TEXT: Neuroprotective activity in Abeta42 induced stress human SH-SY5Y cell model measured after 72 hrs by CTG luminescence assay
# Type: functional, cell-based
Calls of active or inactive are those of the source. The calls are words filed in the database; no cut-off is given here.
QUANTITY NAME: Activity

Some solved entries appear below for comparison.
Cc1cccc2sc(NC(=O)CCN3CCN(CC4CCCCC4)CC3)nc12 ... Active
Cc1cccc2sc(NC(=O)CCN3CCN(CCN(C(C)C)C(C)C)CC3)nc12 ... Active
Cc1cccc2sc(NC(=O)CCN3CCN(CCCN(C)C)CC3)nc12 ... Active
Cc1cccc2sc(NC(=O)CCN3CCN(CC4CCCO4)CC3)nc12 (racemic) ... Active

Request: May I ask what Activity has been recorded for Cc1cccc2sc(NC(=O)CCN3CCN(c4ccncc4)CC3)nc12 ?
Response: Active

---

List of Ratio Ki values.
# ASSAY METHOD TEXT: Selectivity index, ratio of Ki for displacement of [3H]DTG from sigma 2 receptor in rat liver membranes to Ki for displacement of [3H]-(+)-pentazocine from sigma1 receptor in guinea pig brain membrane
# Assay type: cell membranes

Cc1cccc2sc(NC(=O)CCN3CCN(CCCN(C)C)CC3)nc12 ... > 1.75
Cc1cccc2sc(NC(=O)CCN3CCN(c4ncccn4)CC3)nc12 ... > 1.98
Cc1cccc2sc(NC(=O)CCN3CCN(CC4CCCO4)CC3)nc12 (racemic) ... 45.9

Now let's try a different one.
Request: May I ask what Ratio Ki has been recorded for Cc1cccc2sc(NC(=O)CCN3CCN(C4CCCCC4)CC3)nc12 ?
Response: 9.71

---

Target or system Sigma non-opioid intracellular receptor 1 (Cavia porcellus): recorded Ki listed per item.
Express it in nM; write the number only.

Some solved entries appear below for comparison.
Cc1cccc2sc(NC(=O)CCN3CCN(CCN(C(C)C)C(C)C)CC3)nc12 ... 809
Cc1cccc2sc(NC(=O)CCN3CCN(CC4CCCCC4)CC3)nc12 ... 35
Cc1cccc2sc(NC(=O)CCN3CCN(c4ccccn4)CC3)nc12 ... 1000
Cc1cccc2sc(NC(=O)CCN3CCN(c4ccncc4)CC3)nc12 ... 9600
Cc1cccc2sc(NC(=O)CCN3CCN(c4ncccn4)CC3)nc12 ... 505

Request: # query: Ki | item CCCCCCN1CCN(CCC(=O)Nc2nc3c(C)cccc3s2)CC1 | system: Sigma non-opioid intracellular receptor 1 (Cavia porcellus);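 further: radioligand displacement of [3H]-(+)-pentazocine binding to sigma1 receptor in guinea pig brain membranes, read by scintillation counting after a 120 min incubation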
Response: 238

---

List of Ratio Ki values.
# ASSAY METHOD TEXT: Selectivity index, ratio of Ki for displacement of [3H]-(+)-pentazocine from sigma1 receptor in guinea pig brain membrane to Ki for displacement of [3H]DTG from sigma 2 receptor in rat liver membranes
# Type: cell membranes
Output spec: single numeric token, no unit.

Some solved entries appear below for comparison.
Cc1cccc2sc(NC(=O)CCN3CCN(CCN(C(C)C)C(C)C)CC3)nc12 ... 6.68
CCCCCCN1CCN(CCC(=O)Nc2nc3c(C)cccc3s2)CC1 ... 1.5
Cc1cccc2sc(NC(=O)CCN3CCN(C4CCN(C)CC4)CC3)nc12 ... 1.66

Now let's try a different one.
Request: May I ask what Ratio Ki has been recorded for Cc1cccc2sc(NC(=O)CCN3CCN(c4ccncc4)CC3)nc12 ?
Response: 5.65

---

# TARGET SYSTEM: Acetylcholinesterase (Homo sapiens)
# Sequence (P22303 whole entry): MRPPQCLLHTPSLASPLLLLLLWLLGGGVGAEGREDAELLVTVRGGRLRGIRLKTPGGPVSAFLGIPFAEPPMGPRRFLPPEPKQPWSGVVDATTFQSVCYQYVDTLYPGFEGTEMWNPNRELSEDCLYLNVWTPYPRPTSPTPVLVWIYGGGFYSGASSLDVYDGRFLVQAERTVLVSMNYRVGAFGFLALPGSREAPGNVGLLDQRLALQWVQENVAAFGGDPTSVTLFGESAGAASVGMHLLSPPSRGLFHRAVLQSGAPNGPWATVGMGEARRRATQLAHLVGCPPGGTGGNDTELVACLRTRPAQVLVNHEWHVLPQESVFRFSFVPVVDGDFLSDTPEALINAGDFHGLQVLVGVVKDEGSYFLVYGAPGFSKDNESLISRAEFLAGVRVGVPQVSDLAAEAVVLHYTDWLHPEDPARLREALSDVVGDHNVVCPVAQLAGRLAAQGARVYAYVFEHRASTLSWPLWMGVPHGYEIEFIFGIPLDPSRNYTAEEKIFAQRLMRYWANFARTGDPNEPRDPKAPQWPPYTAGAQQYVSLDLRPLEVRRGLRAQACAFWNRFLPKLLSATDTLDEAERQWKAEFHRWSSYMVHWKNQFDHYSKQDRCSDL
# ASSAY METHOD TEXT: Inhibition of human recombinant AChe using acetylthiocholine iodide as substrate incubated for 10 mins by DTNB reagent based Ellman's method
QUANTITY NAME: IC50

CCOCCN1CCN(CCC(=O)Nc2nc3c(C)cccc3s2)CC1 ... 20.1 µM
Cc1cccc2sc(NC(=O)CCN3CCN(C(C)C)CC3)nc12 ... 2.75 µM
Cc1cccc2sc(NC(=O)CCN3CCN(C(C)(C)C)CC3)nc12 ... 0.81 µM
Cc1cccc2sc(NC(=O)CCN3CCN(Cc4cccc5ccccc45)CC3)nc12 ... 19.3 µM
Cc1cccc2sc(NC(=O)CCN3CCN(Cc4ccccc4F)CC3)nc12 ... 5.22 µM

Now let's try a different one.
Request: May I ask what IC50 has been recorded for CCCCN1CCN(CCC(=O)Nc2nc3c(C)cccc3s2)CC1 ?
Response: > 40 µM
